This listing pairs molecules with measured inhibition at 0.1 µM.
Target Or Test System: CXCR4 (Homo sapiens, UniProt P61073)
Construct: endogenous in cells; host or cells: MT-4 cells
Sequence (P61073 whole entry): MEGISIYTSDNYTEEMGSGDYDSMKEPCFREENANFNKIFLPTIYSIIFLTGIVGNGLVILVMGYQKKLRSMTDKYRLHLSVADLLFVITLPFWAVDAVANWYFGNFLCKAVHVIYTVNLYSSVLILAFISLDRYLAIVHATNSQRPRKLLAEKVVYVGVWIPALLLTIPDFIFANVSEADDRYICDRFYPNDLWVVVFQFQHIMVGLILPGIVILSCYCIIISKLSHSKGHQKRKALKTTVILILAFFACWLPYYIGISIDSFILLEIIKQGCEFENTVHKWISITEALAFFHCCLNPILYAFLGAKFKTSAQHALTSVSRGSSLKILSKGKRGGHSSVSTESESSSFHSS
Assay Info: Inhibition of 125I-SDF-1α binding to receptors CXCR4 on MT-4 cells (Test Examples 2 and 5)
Experimental Parameters: binding-inhibition % at 0.1 μM, as in Test Example 2; Table 5; read-out: CXCR4 Activity % at 0.1 μM
// note: answer is a bare numeric in %

Molecule: CCCN(CCC)Cc1ccc(NC(=O)c2ccc(CN(Cc3ncc[nH]3)Cc3ncccc3C)cc2)cc1 [Compound No. 53]
inhibition at 0.1 µM (%): 97.7

Under CXCR4 (Homo sapiens, UniProt P61073): inhibition at 0.1 µM value of CCCN(CCC)Cc1ccc(NC(=O)c2ccc(CN(Cc3ncc[nH]3)Cc3nc4ccccc4[nH]3)cc2)cc1 [Compound No. 61] ? 100

Give recorded inhibition at 0.1 µM with CXCR4 (Homo sapiens, UniProt P61073) for the following molecule: CCCN(CCC)Cc1ccc(NC(=O)c2ccc(CN(Cc3cc4ccccc4cn3)Cc3ncc[nH]3)cc2)cc1 [Compound No. 47] 98.8

All values here come from patent US7833991B2.
